# Assay Summary: Components of the Cytosolic LPS Sensing Pathway: Gene Identification via Genome-wide siRNA Screen
# Conditions: RAW264.7 macrophages, IL-1a HTRF, actives lie on both sides, screened at 100 nM (by protocol), cells primed 5 h with Pam3CSK4 first
About 3,700 (7%) of roughly 53,000 sequences were called active.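 Rule for the calls: active = gene knockdowns whose robust z-score for IL-1 alpha signal is at least 2 or at most -2, so actives lie on both sides; inactive = the rest.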 Many of the other results were omitted from the sample, so actives are more common in it than they were.
Write down the outcome that applies. Available outcomes: active, inactive

GGUCACAUCGUCCUUACAGTT against Rps6ka4: active
CCUUCUACUAAUCAAGAGATT against Sparc: inactive
GGUGAUUGGGAAUUGAAAATT against F3: inactive
GGGCCAAGAAAACCUACACTT against Cyp11b2: active
GGAGCUACACACAUAGGAATT against Clec2h: inactive

query: What outcome does the record of this test show for GGAUUCUGUGCUUUCCUGGTT against Pomt2 ?
result: inactive

query: Assay result, entry GGCCUUCACGUCUGGAAAUTT against Cnot10 — outcome?
result: inactive
